# EXPERIMENTAL TARGET: KCNQ 2/3 channels (HEK293 cells stably expressing human KCNQ2 and KCNQ3 subunits) (Homo sapiens, UniProt O43525+O43526)
# Construct: expressed in transfected cells; host or cells: HEK293
# PROTOCOL NOTES: KCNQ2/3 channel activation, thallium flux FLIPR assay with BTC-AM dye
# Format: cell-based
# STUDY CONDITIONS: HEK293 cells expressing human KCNQ2 and KCNQ3; thallium flux, FLIPR
EC50 reference

Use these answered entries as a reference point.
SMILES NOTATION | EC50
O=C(Cc1cc(F)cc(F)c1)Nn1nc(-c2ccc(F)cc2)c2ccccc2c1=O | 100 to 500 nM
O=C(CC12CC3CC(CC(C3)C1)C2)Nn1nc(-c2ccccc2)c2ccsc2c1=O | 100 to 500 nM
O=C(Cc1ccc(Cl)cc1)Nn1nc(C(F)(F)F)c2ccccc2c1=O | 100 to 500 nM
Cc1ccc(-c2nn(NC(=O)Cc3ccc(Cl)cc3)c(=O)c3ccccc23)cc1C | 100 to 500 nM

Please examine the following record next.
Incoming: Any idea what its EC50 is? The compound is `O=C(Nn1nc(C(F)(F)F)c2ccccc2c1=O)C(F)(F)c1ccccc1`
Outgoing: > 10000 nM
